Assay: Cytotoxicity against human TZM-bl cells assessed as cell viability at 100 ug after 48 hrs by MTT assay
Format: cell-based
Details: read-out: Activity
viability at 48 h, 100 ug: recorded values
Numbers only here, please. The scale is %.

// below: answered molecules
structureAsSmiles: O=C1Nc2ccc(OC(F)(F)F)cc2[C@]12C[C@H]2CCl
outcomeMeasure: viability at 48 h, 100 ug
assayResult: 60
--
structureAsSmiles: O=C1Nc2ccccc2[C@]12C[C@H]2CO
outcomeMeasure: viability at 48 h, 100 ug
assayResult: 89
--
structureAsSmiles: Cc1ccc2c(c1)[C@]1(C[C@H]1CCl)C(=O)N2
outcomeMeasure: viability at 48 h, 100 ug
assayResult: 87
--
structureAsSmiles: Cc1ccc2c(c1)[C@]1(C[C@H]1CO)C(=O)N2
outcomeMeasure: viability at 48 h, 100 ug
assayResult: 93
--
structureAsSmiles: O=C1Nc2ccc([N+](=O)[O-])cc2[C@]12C[C@H]2CO
outcomeMeasure: viability at 48 h, 100 ug
assayResult: 109

I would be grateful if you could share the reported viability at 48 h, 100 ug for `O=C1Nc2ccc(OC(F)(F)F)cc2[C@]12C[C@H]2CO` .
60

I would be grateful if you could share the reported viability at 48 h, 100 ug for `O=C1Nc2ccc([N+](=O)[O-])cc2[C@]12C[C@H]2CCl` .
92

I would be grateful if you could share the reported viability at 48 h, 100 ug for `O=C1Nc2ccccc2[C@]12C[C@H]2CCl` .
86

* * *

Assay: Partition coefficient, log P of the compound
Assay type: physicochemical
Settings: octanol/water
outcomeMeasure: logP
Please give only the number in your answer, with no unit.

// below: answered compounds
structureAsSmiles: Cc1ccc2c(c1)[C@]1(C[C@H]1CO)C(=O)N2
logP: 1.21

structureAsSmiles: O=C1Nc2ccc(OC(F)(F)F)cc2[C@]12C[C@H]2CO
logP: 1.89

structureAsSmiles: O=C1Nc2ccccc2[C@]12C[C@H]2CO
logP: 2.19

structureAsSmiles: O=C1Nc2ccc([N+](=O)[O-])cc2[C@]12C[C@H]2CCl
logP: 1.84

structureAsSmiles: O=C1Nc2ccccc2[C@]12C[C@H]2CCl
logP: 1.95

I would be grateful if you could share the reported logP for `O=C1Nc2ccc(OC(F)(F)F)cc2[C@]12C[C@H]2CCl` .
3.48

I would be grateful if you could share the reported logP for `O=C1Nc2ccc([N+](=O)[O-])cc2[C@]12C[C@H]2CO` .
0.54

I would be grateful if you could share the reported logP for `Cc1ccc2c(c1)[C@]1(C[C@H]1CCl)C(=O)N2` .
2.44

* * *

viability at 48 h, 20 ug: recorded values
Assay: Cytotoxicity against human TZM-bl cells assessed as cell viability at 20 ug after 48 hrs by MTT assay
Type: cell-based
Details: read-out: Activity
Numbers only here, please. The scale is %.

structureAsSmiles: O=C1Nc2ccc(OC(F)(F)F)cc2[C@]12C[C@H]2CCl
viability at 48 h, 20 ug, %: 95

I would be grateful if you could share the reported viability at 48 h, 20 ug for `O=C1Nc2ccccc2[C@]12C[C@H]2CCl` .
92

I would be grateful if you could share the reported viability at 48 h, 20 ug for `O=C1Nc2ccc([N+](=O)[O-])cc2[C@]12C[C@H]2CCl` .
102

I would be grateful if you could share the reported viability at 48 h, 20 ug for `O=C1Nc2ccc([N+](=O)[O-])cc2[C@]12C[C@H]2CO` .
107

I would be grateful if you could share the reported viability at 48 h, 20 ug for `Cc1ccc2c(c1)[C@]1(C[C@H]1CO)C(=O)N2` .
100

I would be grateful if you could share the reported viability at 48 h, 20 ug for `Cc1ccc2c(c1)[C@]1(C[C@H]1CCl)C(=O)N2` .
91

I would be grateful if you could share the reported viability at 48 h, 20 ug for `O=C1Nc2ccccc2[C@]12C[C@H]2CO` .
98

I would be grateful if you could share the reported viability at 48 h, 20 ug for `O=C1Nc2ccc(OC(F)(F)F)cc2[C@]12C[C@H]2CO` .
93
